- Test system: ANGPTL4, a PPARG target gene, in HT1197 (RXRA S427F mutation) cells
- Assay Protocol: Bladder cancer pharmacodynamic assay (HT1197 cell assay, qPCR of PPARG target genes)
- Format: cell-based
- Assay Setup: Homo sapiens, 100 nM compound, 24 hours, relative to DMSO control
Quantity Name: inhibition at 0.1 µM (%)
Could you give me the number in %? Just the number is fine.

>>> value("CS(=O)(=O)c1ccc(C#N)cc1C(=O)Nc1ccc(C#N)c(Cl)c1")
86
>>> value("CS(=O)(=O)c1ccc(C#N)cc1C(=O)Nc1ccc(F)c(C#N)c1")
43
>>> value("CC(=O)N1CCN(c2ccc(NC(=O)c3cc(C#N)ccc3S(C)(=O)=O)cn2)CC1")
13

With those in mind, consider the next molecule.
What inhibition at 0.1 µM value was documented for this molecule, CS(=O)(=O)c1ccc(C#N)cc1C(=O)Nc1cc(F)c(-c2ccc3c(c2)C(=O)NC3)c(F)c1 ?
19

###

The reader will find reported pEC50 values listed item by item below.
- Experimental Target: PPARG/RXRA LBD heterodimer (Homo sapiens)
- Construct: His-TEV-Q203-Y477; Uniprot ID P37231-2; made in house; host or cells: E. coli
- Assay Protocol: PPARγ-MED1 blockade assay (TR-FRET)
- Type: binding
- Assay Setup: MED1 LxxLL peptide, 80 nM Rosiglitazone, 3 hours
pEC50: −log10 of the molar value.

Example results:
>>> value("CS(=O)(=O)c1ccc(C#N)cc1C(=O)Nc1ccc2cnccc2c1")
"5.00 to 6.00"
>>> value("CS(=O)(=O)c1ccc(C#N)cc1C(=O)Nc1cc(F)cc(Oc2ccc(Cl)cc2)c1")
"7.00 to 8.00"
>>> value("N#Cc1ccc(SC(F)(F)F)c(C(=O)Nc2cc(F)c(-c3ccc(C(F)F)nc3)c(F)c2)c1")
"6.00 to 7.00"

What pEC50 value was documented for this compound, CS(=O)(=O)c1ccc(C#N)cc1C(=O)Nc1ccc(C(F)(F)F)c(C#N)c1 ?
6.00 to 7.00

What about CS(=O)(=O)c1ccc(C#N)cc1C(=O)Nc1cc(Cl)cc(Cl)c1 ?
6.00 to 7.00

What about CN1Cc2ccc(-c3c(F)cc(NC(=O)c4cc(C#N)ccc4S(C)(=O)=O)cc3F)cc2C1=O ?
6.00 to 7.00

What about Cn1cc(-c2c(F)cc(NC(=O)c3cc(C#N)ccc3SC(F)(F)F)cc2F)cn1 ?
6.00 to 7.00

What about CN1Cc2ccc(-c3c(F)cc(NC(=O)c4cc(C#N)ccc4SC(F)(F)F)cc3F)cc2C1=O ?
6.00 to 7.00

###

- Experimental Target: PPARG/RXRA LBD heterodimer (Homo sapiens)
- Construct: His-TEV-Q203-Y477; Uniprot ID P37231-2; made in house; host or cells: E. coli
- Assay Protocol: PPARγ-MED1 blockade assay (TR-FRET)
- Assay type: binding
- Assay Setup: MED1 LxxLL peptide, 80 nM Rosiglitazone, 3 hours
pEC50: −log10 of the molar value.
Quantity Name: pEC50

Example results:
>>> value("CS(=O)(=O)c1cnc(C#N)cc1C(=O)Nc1ccnc(C(F)(F)F)c1 [Example 32]")
"6.00 to 7.00"
>>> value("CS(=O)(=O)c1ccc(C#N)cc1C(=O)Nc1cc(F)cc(F)c1 [Example 5]")
"5.00 to 6.00"
>>> value("CC(=O)N1CCN(c2ccc(NC(=O)c3cc(C#N)ccc3S(C)(=O)=O)cn2)CC1 [Example 18]")
"< 5.00"
>>> value("N#Cc1ccc(S(=O)(=O)CC(F)(F)F)c(C(=O)Nc2cc(F)cc(F)c2)c1 [Example 33]")
"5.00 to 6.00"
>>> value("CS(=O)(=O)c1ccc(C#N)cc1C(=O)Nc1ccnc(C(F)(F)F)c1 [Example 9]")
"5.00 to 6.00"
>>> value("N#Cc1ccc(SC(F)(F)F)c(C(=O)Nc2cc(F)cc(F)c2)c1 [Example 6]")
"6.00 to 7.00"
>>> value("N#Cc1cc(C(=O)Nc2cc(F)cc(F)c2)c(S(=O)(=O)CC(F)(F)F)cn1 [Example 34]")
"6.00 to 7.00"
>>> value("Cc1cc(NC(=O)c2cc(C#N)ccc2S(C)(=O)=O)cc(C)n1 [Example 19]")
"< 5.00"
>>> value("Cc1ccc(-c2c(F)cc(NC(=O)c3cc(C#N)ccc3SC(F)(F)F)cc2F)cn1 [Example 3]")
"6.00 to 7.00"
>>> value("CS(=O)(=O)c1ccc(C#N)cc1C(=O)Nc1cc(F)c(-c2ccc3c(c2)C(=O)NC3)c(F)c1 [Example 23]")
"7.00 to 8.00"

What pEC50 value was documented for this molecule, N#Cc1ccc(SC(F)(F)F)c(C(=O)Nc2cc(F)cc(Oc3ccc(Cl)cc3)c2)c1 [Example 26] ?
6.00 to 7.00

What about CN1CCN(c2ccc(NC(=O)c3cc(C#N)ccc3S(C)(=O)=O)cn2)CC1 [Example 12] ?
< 5.00

What about Cc1ccc(-c2c(F)cc(NC(=O)c3cc(C#N)ccc3S(C)(=O)=O)cc2F)cn1 [Example 4] ?
6.00 to 7.00

###

- Test system: ANGPTL4, a PPARG target gene, in HT1197 (RXRA S427F mutation) cells
- Assay Protocol: Bladder cancer pharmacodynamic assay (HT1197 cell assay, qPCR of PPARG target genes)
- Type: cell-based
- Assay Setup: Homo sapiens, 100 nM compound, 24 hours, relative to DMSO control
- Procedure: 5637 (PPARG amplified) and HT1197 (RXRA S427F mutation) cells were used for assessment of modulation of PPARG target genes using quantitative PCR. […] Quantitative PCR was performed using an ABI QuantStudio 7 Flex Reaction system. Data were analyzed and reported relative to DMSO control using the comparative Ct method (ΔΔCt).
Quantity Name: inhibition at 0.1 µM (%)
Could you give me the number in %? Just the number is fine.

Example results:
>>> value("N#Cc1ccc(S(=O)(=O)CC(F)(F)F)c(C(=O)Nc2cc(F)cc(F)c2)c1")
19
>>> value("Cc1ccc(-c2c(F)cc(NC(=O)c3cc(C#N)ccc3S(C)(=O)=O)cc2F)cn1")
74

With those in mind, consider the next compound.
State its inhibition at 0.1 µM on ANGPTL4, a PPARG target gene, in HT1197 (RXRA S427F mutation) cells: CS(=O)(=O)c1cnc(C#N)cc1C(=O)Nc1cc(F)cc(F)c1
72

###

- Experimental Target: PPARG/RXRA LBD heterodimer (Homo sapiens, UniProt P37231)
- Construct: 2 nM WT PPARG LBD (e. coli expressed, His-TEV-Q203-Y477); fused on or other part: N-terminal His tag with TEV site on the PPARG LBD
- Assay Protocol: PPARγ-NCOR1 recruitment assay (TR-FRET)
- Assay type: binding
- Assay Setup: NCOR1 ID2 peptide, 80 nM Rosiglitazone, 3 hours, read-out: PPARG - NCOR recruitment assay EC50
- Sequence (O75376 2251-2273 limits assumed, one chain of several, further chain): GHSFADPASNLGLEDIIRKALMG
The reader will find reported EC50 values listed item by item below.

>>> value("CS(=O)(=O)c1ccc(C#N)cc1C(=O)Nc1ccc(C#N)c(Cl)c1 [Example 1]")
"100 to 1000 nM"
>>> value("CS(=O)(=O)c1ccc(C#N)cc1C(=O)Nc1cc(F)cc(F)c1 [Example 5]")
"100 to 1000 nM"
>>> value("N#Cc1ccc(SC(F)(F)F)c(C(=O)Nc2cc(F)cc(Oc3ccc(Cl)cc3)c2)c1 [Example 26]")
"100 to 1000 nM"
>>> value("CN1Cc2ccc(-c3c(F)cc(NC(=O)c4cc(C#N)ccc4SC(F)(F)F)cc3F)cc2C1=O [Example 27]")
"100 to 1000 nM"
>>> value("CS(=O)(=O)c1ccc(C#N)cc1C(=O)Nc1ccc(C#N)c(C(F)(F)F)c1 [Example 7]")
"1000 to 10000 nM"

What EC50 value was documented for this molecule, N#Cc1ccc(SC(F)(F)F)c(C(=O)Nc2cc(F)c(-c3ccc(C(F)F)nc3)c(F)c2)c1 [Example 2] ?
100 to 1000 nM

What about N#Cc1ccc(SC(F)(F)F)c(C(=O)Nc2cc(Cl)cc(Cl)c2)c1 [Example 15] ?
10 to 100 nM

What about CS(=O)(=O)c1cnc(C#N)cc1C(=O)Nc1ccnc(C(F)(F)F)c1 [Example 32] ?
100 to 1000 nM

###

- Experimental Target: PPARG/RXRA LBD heterodimer (Homo sapiens)
- Construct: His-TEV-Q203-Y477; Uniprot ID P37231-2; made in house; host or cells: E. coli
- Sequence (P37231 203-477 isoform P37231-2): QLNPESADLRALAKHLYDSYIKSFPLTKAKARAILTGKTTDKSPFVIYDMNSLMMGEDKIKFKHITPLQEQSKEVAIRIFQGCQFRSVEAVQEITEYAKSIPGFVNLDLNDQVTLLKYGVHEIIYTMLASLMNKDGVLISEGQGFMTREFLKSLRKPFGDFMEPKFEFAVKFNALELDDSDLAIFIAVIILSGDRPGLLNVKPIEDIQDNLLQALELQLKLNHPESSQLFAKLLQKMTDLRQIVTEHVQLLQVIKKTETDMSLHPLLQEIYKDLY
- Sequence (P19793 228-462 partner limits assumed): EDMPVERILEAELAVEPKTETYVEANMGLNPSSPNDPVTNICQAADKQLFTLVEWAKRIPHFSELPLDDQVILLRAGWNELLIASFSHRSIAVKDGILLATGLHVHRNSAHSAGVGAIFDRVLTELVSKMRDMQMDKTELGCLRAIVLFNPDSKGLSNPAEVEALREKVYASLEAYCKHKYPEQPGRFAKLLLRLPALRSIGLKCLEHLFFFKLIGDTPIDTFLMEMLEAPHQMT
- Assay Protocol: PPARγ-MED1 blockade assay (TR-FRET)
- Assay type: binding
- Assay Setup: MED1 LxxLL peptide, 80 nM Rosiglitazone, 3 hours
Quantity Name: EC50

What EC50 value was documented for this compound, CS(=O)(=O)c1ccc(C#N)cc1C(=O)Nc1ccc2ccncc2c1 ?
> 10 µM

What about CS(=O)(=O)c1ccc(C#N)cc1C(=O)Nc1ccn2nccc2c1 ?
> 10 µM

What about CS(=O)(=O)c1ccc(C#N)cc1C(=O)Nc1ccc(F)c(C#N)c1 ?
1 to 10 µM

What about Cn1cc(-c2c(F)cc(NC(=O)c3cc(C#N)ccc3S(C)(=O)=O)cc2F)cn1 ?
0.1 to 1 µM

What about CS(=O)(=O)c1ccc(C#N)cc1C(=O)Nc1ccc(C#N)c(Cl)c1 ?
0.1 to 1 µM

What about N#Cc1ccc(SC(F)(F)F)c(C(=O)Nc2cc(Cl)cc(Cl)c2)c1 ?
0.01 to 0.1 µM

What about CS(=O)(=O)c1cnc(C#N)cc1C(=O)Nc1cc(F)cc(F)c1 ?
0.01 to 0.1 µM

What about CS(=O)(=O)c1ccc(C#N)cc1C(=O)Nc1ccc(C#N)c(C(F)(F)F)c1 ?
1 to 10 µM

What about CS(=O)(=O)c1ccc(C#N)cc1C(=O)Nc1ccc(C#N)c(F)c1 ?
1 to 10 µM

Ref: patent US20250197357A1
